Where do the numbers come from? From patent US5952390A.

tested.target: 5-LO in bovine PMNL (Bos taurus, UniProt F1MQ78)
Construct: endogenous in cells; host or cells: polymorphonuclear leukocytes isolated from bovine blood
Sequence (F1MQ78 1-674): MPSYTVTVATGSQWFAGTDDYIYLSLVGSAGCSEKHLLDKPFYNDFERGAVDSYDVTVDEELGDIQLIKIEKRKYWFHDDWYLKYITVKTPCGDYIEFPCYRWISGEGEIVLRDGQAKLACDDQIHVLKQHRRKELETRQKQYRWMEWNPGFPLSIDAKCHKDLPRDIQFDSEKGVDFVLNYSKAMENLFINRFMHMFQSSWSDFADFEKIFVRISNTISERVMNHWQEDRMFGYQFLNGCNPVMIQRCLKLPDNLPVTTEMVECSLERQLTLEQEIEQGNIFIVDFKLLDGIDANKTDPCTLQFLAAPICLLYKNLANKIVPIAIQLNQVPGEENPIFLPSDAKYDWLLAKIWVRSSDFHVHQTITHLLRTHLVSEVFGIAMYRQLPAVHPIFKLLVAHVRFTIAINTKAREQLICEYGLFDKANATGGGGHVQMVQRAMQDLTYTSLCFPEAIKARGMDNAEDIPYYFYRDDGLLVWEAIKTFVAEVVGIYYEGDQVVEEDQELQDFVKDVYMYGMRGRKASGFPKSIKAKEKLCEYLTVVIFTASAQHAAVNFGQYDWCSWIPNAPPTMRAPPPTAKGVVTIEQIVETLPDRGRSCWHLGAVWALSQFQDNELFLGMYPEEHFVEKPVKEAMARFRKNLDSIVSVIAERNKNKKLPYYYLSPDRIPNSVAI
test.protocol: Bovine PMNL 5-lipoxygenase assay (inhibition of 5-HETE and LTB4 biosynthesis)
Type: cell-based
Collected IC50 values appear next to each entry.
Answer in nM, number only, no unit symbol.

// query Given the compound Cc1ccc(CC(=O)C2c3cccc(O)c3C(=O)c3c(O)cccc32)cc1 , what is its reported IC50?
// result 600

// query Given the compound CC(Cc1ccc(O)c(O)c1)C(C)Cc1ccc(O)c(O)c1 (centres unmarked) [Nordihydroguaiaretic acid (NDGA), Nordihydroguaiaretic acid] , what is its reported IC50?
// result 400

* * *

tested.target: 5-LO in bovine PMNL (Bos taurus)
Construct: endogenous in cells; host or cells: polymorphonuclear leukocytes isolated from bovine blood
test.protocol: Bovine PMNL 5-lipoxygenase assay (inhibition of 5-HETE and LTB4 biosynthesis)
Format: cell-based
condition.info: Table V; bovine PMNL
measured.attribute: pIC50
To interpret pIC50, take it as minus log10 of a concentration measured in moles per litre.

// query Request: pIC50, test system 5-LO in bovine PMNL (Bos taurus), entry CC(CCC(=O)C1c2cccc(O)c2C(=O)c2c(O)cccc21)c1ccccc1 (racemic) [Compound Iw]
// result 6.52
